- Organism: Rattus norvegicus
- experiment.notes: Open TG-GATES - Regimen: Single
- Type: toxicity, organism-based, Sprague-Dawley
- Set-up: regimen Single, gender Male, age 6 weeks
- run.conditions: in vivo, po, 0 mg/kg, 3 h, tissue Plasma, route gavage, dose level Control
observation.type: LDH (IU/L)
Return type: number; implicit unit IU/L.

Worked examples, 3 compounds total:
compound: CS(=O)(=O)Nc1ccc([N+](=O)[O-])cc1Oc1ccccc1 [NIMESULIDE]
value.measured: 65.8
//
compound: O=C1CN(/N=C/c2ccc(-c3ccc([N+](=O)[O-])cc3)o2)C(O)=N1
value.measured: 92.8
//
compound: Cn1cnc([N+](=O)[O-])c1Sc1ncnc2nc[nH]c12
value.measured: 217.6

Challenge: Recorded LDH for O=C1NC(=O)C(c2ccccc2)(c2ccccc2)N1 , please?
Response given: 127.8

Challenge: Which value of LDH has been reported for C=CCO in the records?
Response given: 190.8

Challenge: // returns reported LDH for input COc1ccc(O)c(C(C)(C)C)c1.COc1ccc(O)cc1C(C)(C)C [BUTYLATED HYDROXYANISOLE]
Response given: 72.2

Challenge: Item under review: COc1ccc(Cl)cc1C(=O)NCCc1ccc(S(=O)(=O)NC(=O)NC2CCCCC2)cc1 [GLYBURIDE] . Reported LDH?
Response given: 166.6

Challenge: Tell me the measured LDH of Cc1cccc(Nc2cc(Cl)nc(SCC(=O)O)n2)c1C , please.
Response given: 91.6

Challenge: Report LDH for S=C=Nc1cccc2ccccc12 [1-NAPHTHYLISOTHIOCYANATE] please.
Response given: 189.2

Challenge: Quick one: LDH for Cc1cnc(NC(=O)C2=C(O)c3ccccc3S(=O)(=O)N2C)s1 ?
Response given: 149.4

###

- Organism: Rattus norvegicus
- experiment.notes: Open TG-GATES - Regimen: Daily Repeat
- Assay type: toxicity, organism-based, Sprague-Dawley
- Set-up: regimen Daily Repeat, gender Male, age 6 weeks
- run.conditions: in vivo, po, 0 mg/kg, […], tissue Blood, route gavage, dose level Control, time 28 day
Threshold 20 s. APTT below it: rule met. APTT at it or above: rule not met.

Worked cases, answers included:
compound: Cn1cnc([N+](=O)[O-])c1Sc1ncnc2nc[nH]c12 [AZATHIOPRINE]
discrete.label: rule not met

compound: CS(=O)(=O)Nc1ccc([N+](=O)[O-])cc1Oc1ccccc1 [NIMESULIDE]
discrete.label: rule met

Challenge: Say whether its APTT is strictly beneath 20 s. Entry: O=C1NC(=O)C(c2ccccc2)(c2ccccc2)N1 [PHENYTOIN]
Response given: rule not met

Challenge: Below 20 s on APTT? Entry O=C1CN(/N=C/c2ccc(-c3ccc([N+](=O)[O-])cc3)o2)C(O)=N1 [DANTROLENE]
Response given: rule met

Challenge: State whether 20 s exceeds APTT recorded for O=P1(N(CCCl)CCCl)NCCCO1 (centres undefined) [CYCLOPHOSPHAMIDE ANHYDROUS] .
Response given: rule not met

###

- Species on record: Rattus norvegicus
- experiment.notes: Open TG-GATES - Regimen: Daily Repeat
- Type: toxicity, organism-based, Sprague-Dawley
- Set-up: regimen Daily Repeat, gender Male, age 6 weeks
- run.conditions: in vivo, po, 0 mg/kg, […], tissue Blood, route gavage, dose level Control, time 7 day
observation.type: RBC (x10_4/ul)
Please reply with the bare figure in x10_4/ul and do not write the unit itself.

Some molecules with recorded RBC:
molecule: Cn1c(=O)c2c(ncn2C)n(C)c1=O [CAFFEINE]
observation.type: RBC
units.label: x10_4/ul
value.measured: 644.8
//
molecule: CS(=O)(=O)Nc1ccc([N+](=O)[O-])cc1Oc1ccccc1 [NIMESULIDE]
observation.type: RBC
units.label: x10_4/ul
value.measured: 642.4
//
molecule: O=C1CN(/N=C/c2ccc(-c3ccc([N+](=O)[O-])cc3)o2)C(O)=N1 [DANTROLENE]
observation.type: RBC
units.label: x10_4/ul
value.measured: 666.4

Challenge: May I ask what RBC has been recorded for C=CCO [ALLYL ALCOHOL] ?
Response given: 640.4

Challenge: Sample Cn1cnc([N+](=O)[O-])c1Sc1ncnc2nc[nH]c12 [AZATHIOPRINE] — what was its RBC?
Response given: 631.4

Challenge: Data request, read-out RBC, for O=P1(N(CCCl)CCCl)NCCCO1 (stereo unspecified) [CYCLOPHOSPHAMIDE ANHYDROUS]
Response given: 633.4

Challenge: Returns the measured RBC for the input molecule. Input: Cc1cnc(NC(=O)C2=C(O)c3ccccc3S(=O)(=O)N2C)s1 [MELOXICAM]
Response given: 655.6

Challenge: Given the molecule O=C1NC(=O)C(c2ccccc2)(c2ccccc2)N1 [PHENYTOIN] , what is its reported RBC?
Response given: 628

Challenge: Report RBC for Cc1cccc(Nc2cc(Cl)nc(SCC(=O)O)n2)c1C [PIRINIXIC ACID] please.
Response given: 648.6

Challenge: Request the reported RBC associated with COc1ccc(Cl)cc1C(=O)NCCc1ccc(S(=O)(=O)NC(=O)NC2CCCCC2)cc1 [GLYBURIDE]
Response given: 644.2

Challenge: // RBC lookup, key: COc1ccc(O)c(C(C)(C)C)c1.COc1ccc(O)cc1C(C)(C)C [BUTYLATED HYDROXYANISOLE]
Response given: 647.4

###

- Organism: Rattus norvegicus
- experiment.notes: Open TG-GATES - Regimen: Daily Repeat
- Format: toxicity, organism-based, Sprague-Dawley
- Set-up: regimen Daily Repeat, gender Male, age 6 weeks
- run.conditions: in vivo, po, 0 mg/kg, […], tissue Plasma, route gavage, dose level Control, time 14 day
observation.type: TP (g/dL)
Field format: number, assumed g/dL, no unit text.

Example results:
compound: COc1ccc(O)c(C(C)(C)C)c1.COc1ccc(O)cc1C(C)(C)C [BUTYLATED HYDROXYANISOLE]
observation.type: TP
value.measured: 6
//
compound: Cn1cnc([N+](=O)[O-])c1Sc1ncnc2nc[nH]c12
observation.type: TP
value.measured: 5.8
//
compound: Cc1cccc(Nc2cc(Cl)nc(SCC(=O)O)n2)c1C
observation.type: TP
value.measured: 6
//
compound: C=CCO
observation.type: TP
value.measured: 5.8
//
compound: CS(=O)(=O)Nc1ccc([N+](=O)[O-])cc1Oc1ccccc1 [NIMESULIDE]
observation.type: TP
value.measured: 5.9

Now for the compound whose TP we want.
Challenge: Item Cc1cnc(NC(=O)C2=C(O)c3ccccc3S(=O)(=O)N2C)s1 has what recorded TP?
Response given: 6.1

###

- Species: Rattus norvegicus
- experiment.notes: Open TG-GATES - Regimen: Single
- Assay type: toxicity, organism-based, Sprague-Dawley
- Parameters: regimen Single, gender Male, age 6 weeks
- run.conditions: in vivo, po, 0 mg/kg, 6 h, tissue Plasma, route gavage, dose level Control
observation.type: GLC (mg/dL)
Only the number, expressed in mg/dL, is required.

Some compounds with recorded GLC:
compound: C=CCO
GLC (mg/dL): 199.6
//
compound: S=C=Nc1cccc2ccccc12 [1-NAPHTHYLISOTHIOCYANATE]
GLC (mg/dL): 192

Challenge: Fill in the blank: the reported GLC of O=C1NC(=O)C(c2ccccc2)(c2ccccc2)N1 is ____.
Response given: 184.2

Challenge: Requested field: GLC. Item: Cn1cnc([N+](=O)[O-])c1Sc1ncnc2nc[nH]c12
Response given: 183.8

Challenge: // returns reported GLC for input CNCCC(Oc1ccc(C(F)(F)F)cc1)c1ccccc1.Cl (stereo not given) [FLUOXETINE HYDROCHLORIDE]
Response given: 191

Challenge: Record request: GLC value, item COc1ccc(O)c(C(C)(C)C)c1.COc1ccc(O)cc1C(C)(C)C [BUTYLATED HYDROXYANISOLE]
Response given: 179

Challenge: Fill in the blank: the reported GLC of COc1ccc(Cl)cc1C(=O)NCCc1ccc(S(=O)(=O)NC(=O)NC2CCCCC2)cc1 [GLYBURIDE] is ____.
Response given: 207.2

Challenge: Which GLC is reported for this compound? O=C1CN(/N=C/c2ccc(-c3ccc([N+](=O)[O-])cc3)o2)C(O)=N1
Response given: 196.4

Challenge: What measured GLC goes with CS(=O)(=O)Nc1ccc([N+](=O)[O-])cc1Oc1ccccc1 [NIMESULIDE] ?
Response given: 188

Challenge: Give the measured GLC of Cc1cccc(Nc2cc(Cl)nc(SCC(=O)O)n2)c1C .
Response given: 185.8

###

- Organism: Rattus norvegicus
- experiment.notes: Open TG-GATES - Regimen: Single
- Format: toxicity, organism-based, Sprague-Dawley
- Parameters: regimen Single, gender Male, age 6 weeks
- run.conditions: in vivo, po, 0 mg/kg, 9 h, tissue Blood, route gavage, dose level Control
Neu vs 20%: less than gives yes (1); not less than gives no (0).

Study these solved cases before continuing.
molecule: S=C=Nc1cccc2ccccc12 [1-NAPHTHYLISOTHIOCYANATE]
discrete.label: no (0)
--
molecule: Cn1cnc([N+](=O)[O-])c1Sc1ncnc2nc[nH]c12
discrete.label: yes (1)
--
molecule: CS(=O)(=O)Nc1ccc([N+](=O)[O-])cc1Oc1ccccc1 [NIMESULIDE]
discrete.label: yes (1)
--
molecule: Cc1cnc(NC(=O)C2=C(O)c3ccccc3S(=O)(=O)N2C)s1
discrete.label: no (0)
--
molecule: COc1ccc(Cl)cc1C(=O)NCCc1ccc(S(=O)(=O)NC(=O)NC2CCCCC2)cc1 [GLYBURIDE]
discrete.label: yes (1)
--
molecule: Cc1cccc(Nc2cc(Cl)nc(SCC(=O)O)n2)c1C
discrete.label: no (0)

// next entry
Challenge: Hello, is Neu of the following molecule strictly smaller than 20%? COc1ccc(O)c(C(C)(C)C)c1.COc1ccc(O)cc1C(C)(C)C [BUTYLATED HYDROXYANISOLE]
Response given: no (0)

Values from ChEMBL document CHEMBL3885861
